# test-method-notes: Chemical stability assessed as half life of hydrolysis in 0.02 M hydrochloric acid buffer at pH 1.3
# Assay type: physicochemical
measured-quantity: half-life (h)

COC(=O)[C@H](CCC(=O)N[C@@H](CS)C(=O)NCC(=O)N[C@@H](Cc1ccc(O)c(O)c1)C(=O)OC)NC(C)=O; 20.1
COC(=O)CNC(=O)[C@H](CS)NC(=O)CC[C@H](NC(=O)[C@@H](Cc1ccc(O)c(O)c1)NC(C)=O)C(=O)OC; 31

[1] N[C@@H](CCC(=O)N[C@@H](CS)C(=O)NCC(=O)N[C@@H](Cc1ccc(O)c(O)c1)C(=O)O)C(=O)O
[2] N[C@H](Cc1ccc(O)c(O)c1)C(=O)N[C@@H](CCC(=O)N[C@@H](CS)C(=O)NCC(=O)O)C(=O)O
Of 1 and 2 , which one carries the higher reported half-life? Kindly state the label of the option you pick.
2
(2: 40.4 h, 1: 28.1 h)

###

# test-method-notes: Partition coefficient, log P at pH 7.4 by saturation shake flask method
# Assay type: physicochemical
# measurement-conditions: octanol/water
measured-quantity: logD

N[C@@H](CCC(=O)N[C@@H](CS)C(=O)NCC(=O)N[C@@H](Cc1ccc(O)c(O)c1)C(=O)O)C(=O)O; 0.75
COC(=O)[C@H](CCC(=O)N[C@@H](CS)C(=O)NCC(=O)N[C@@H](Cc1ccc(O)c(O)c1)C(=O)OC)NC(C)=O; 0.89
COC(=O)CNC(=O)[C@H](CS)NC(=O)CC[C@H](NC(=O)[C@@H](Cc1ccc(O)c(O)c1)NC(C)=O)C(=O)OC; 0.94
N[C@H](Cc1ccc(O)c(O)c1)C(=O)N[C@@H](CCC(=O)N[C@@H](CS)C(=O)NCC(=O)O)C(=O)O; 0.8

###

# test-method-notes: Chemical stability assessed as half life of hydrolysis in 0.02 M sodium acetate buffer at pH 5.0
# Type: physicochemical
measured-quantity: half-life (h)

Examples from the recorded data:
N[C@@H](CCC(=O)N[C@@H](CS)C(=O)NCC(=O)N[C@@H](Cc1ccc(O)c(O)c1)C(=O)O)C(=O)O; 57.3
COC(=O)CNC(=O)[C@H](CS)NC(=O)CC[C@H](NC(=O)[C@@H](Cc1ccc(O)c(O)c1)NC(C)=O)C(=O)OC; 69.3

[I] N[C@H](Cc1ccc(O)c(O)c1)C(=O)N[C@@H](CCC(=O)N[C@@H](CS)C(=O)NCC(=O)O)C(=O)O
[II] COC(=O)[C@H](CCC(=O)N[C@@H](CS)C(=O)NCC(=O)N[C@@H](Cc1ccc(O)c(O)c1)C(=O)OC)NC(C)=O
Of I and II , which one carries the higher reported half-life? Kindly state the label of the option you pick.
I

###

# Organism: Homo sapiens
# test-method-notes: Stability in human plasma assessed as half life of hydrolysis
measured-quantity: half-life (min)

N[C@@H](CCC(=O)N[C@@H](CS)C(=O)NCC(=O)N[C@@H](Cc1ccc(O)c(O)c1)C(=O)O)C(=O)O; 15.1

[1] N[C@H](Cc1ccc(O)c(O)c1)C(=O)N[C@@H](CCC(=O)N[C@@H](CS)C(=O)NCC(=O)O)C(=O)O
[2] COC(=O)[C@H](CCC(=O)N[C@@H](CS)C(=O)NCC(=O)N[C@@H](Cc1ccc(O)c(O)c1)C(=O)OC)NC(C)=O
[3] COC(=O)CNC(=O)[C@H](CS)NC(=O)CC[C@H](NC(=O)[C@@H](Cc1ccc(O)c(O)c1)NC(C)=O)C(=O)OC
Please order the records by their reported half-life, lowest number first. Answer format: list of labels, ordered as asked.
2, 3, 1
(2: 3.2 min, 3: 4.7 min, 1: 13.3 min)
